meta.source: patent US20240132578A1

// IC50 (µg/mL), pseudovirus neutralization lookup, one value per entry
Target: HIV-1 Env of isolate 92BR020 (subtype B) (HIV-1)
Assay: cell-based or functional assay

binder	IC50 (µg/mL), pseudovirus neutralization
PGT-131 (antibody, V domains shown) VH: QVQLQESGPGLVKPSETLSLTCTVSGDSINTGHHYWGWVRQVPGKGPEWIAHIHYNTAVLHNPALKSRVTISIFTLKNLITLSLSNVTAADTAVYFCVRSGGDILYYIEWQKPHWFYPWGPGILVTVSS VL: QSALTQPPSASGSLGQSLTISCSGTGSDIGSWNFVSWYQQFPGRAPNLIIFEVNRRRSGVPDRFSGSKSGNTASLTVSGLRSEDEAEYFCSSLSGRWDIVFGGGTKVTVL	6.16
PGT-137 (antibody, V domains shown) VH: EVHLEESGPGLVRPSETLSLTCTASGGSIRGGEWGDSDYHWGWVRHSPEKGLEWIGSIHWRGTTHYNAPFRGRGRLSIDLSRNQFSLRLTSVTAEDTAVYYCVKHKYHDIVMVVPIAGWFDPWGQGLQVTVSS VL: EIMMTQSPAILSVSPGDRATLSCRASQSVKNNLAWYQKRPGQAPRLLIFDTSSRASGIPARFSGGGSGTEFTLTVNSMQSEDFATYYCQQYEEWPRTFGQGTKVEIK	7.81
PGT-136 (antibody, V domains shown) VH: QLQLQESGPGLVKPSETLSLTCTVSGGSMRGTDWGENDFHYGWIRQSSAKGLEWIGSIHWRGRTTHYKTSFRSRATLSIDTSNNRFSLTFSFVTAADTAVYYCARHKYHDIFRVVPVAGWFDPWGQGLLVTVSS VL: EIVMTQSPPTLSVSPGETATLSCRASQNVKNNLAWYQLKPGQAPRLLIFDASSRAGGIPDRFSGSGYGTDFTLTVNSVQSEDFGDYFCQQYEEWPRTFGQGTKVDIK	8.61
PGT-128 (antibody, V domains shown) VH: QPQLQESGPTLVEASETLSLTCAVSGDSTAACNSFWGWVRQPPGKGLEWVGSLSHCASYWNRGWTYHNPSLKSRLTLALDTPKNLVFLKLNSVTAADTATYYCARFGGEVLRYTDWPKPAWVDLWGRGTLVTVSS VL: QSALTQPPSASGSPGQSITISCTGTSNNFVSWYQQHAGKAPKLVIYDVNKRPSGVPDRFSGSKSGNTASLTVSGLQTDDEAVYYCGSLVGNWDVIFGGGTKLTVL	0.009
PGT-135 (antibody, V domains shown) VH: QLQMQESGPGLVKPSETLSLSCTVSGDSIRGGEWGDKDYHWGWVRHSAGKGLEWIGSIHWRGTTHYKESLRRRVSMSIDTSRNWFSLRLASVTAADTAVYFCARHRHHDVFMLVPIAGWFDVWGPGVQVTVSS VL: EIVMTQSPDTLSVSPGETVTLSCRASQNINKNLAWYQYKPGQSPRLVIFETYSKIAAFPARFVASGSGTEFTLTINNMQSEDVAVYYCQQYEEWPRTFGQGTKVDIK	0.073
PGT-130 (antibody, V domains shown) VH: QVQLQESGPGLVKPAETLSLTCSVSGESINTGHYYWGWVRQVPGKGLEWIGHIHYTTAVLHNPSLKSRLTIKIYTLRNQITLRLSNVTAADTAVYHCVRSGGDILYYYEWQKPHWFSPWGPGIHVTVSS VL: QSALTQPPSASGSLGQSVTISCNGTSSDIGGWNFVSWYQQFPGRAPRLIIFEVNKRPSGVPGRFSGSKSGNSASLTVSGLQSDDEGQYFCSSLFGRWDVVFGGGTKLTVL	1.4
